Origin of values: BindingDB's records for doi:10.1021/acs.jmedchem.8b02026

Target: Adenosine receptor A3 (Homo sapiens, UniProt P0DMS8, Y265F)
Assay: Displacement of [3H]PSB11 from human A3 adenosine receptor Y265F (7.36) mutant transiently expressed in CHOK1 cell membranes measured after 2 hrs by scintillation spectrometric method
Measured quantity: IC50

smiles_entry=CCCn1c(=O)c2c(nc3cc(OC)ccn32)n(CCCNC(=O)c2ccc(S(C)(=O)=O)cc2)c1=O result="794 nM"
